Target: SARS-CoV-2 spike receptor-binding domain (RBD), wild type (SARS-CoV-2, UniProt P0DTC2 319-541)
Test: BLI, biotinylated VHH on streptavidin sensor, RBD in solution
measure name: Kd

Tell us which Kd value is on record for Re5D06R15 (VHH) VHH: QVQLVESGGGLVQPGGSLRLSCAASGITLDYYAMGWFREAPGKEREGVARIRNSDGSTNYADSVKGRFTMSRDNAKDTYYLQMNSLEPEDTADYYCAYGPLTKYGSSWYWPYEYDYWGQGTQVTVSS
≤ 0.01 nM

Please supply the value of reported Kd for the item Re5F10 (VHH) VHH: QVQLVESGGGLVQPGGSLRLSCVASGFTFSSFAMGWYRQAPGKECEWVATITITGGSTNYADSVKGRFTISRDNAKNTVYLQMNSLKPEDTAVYYCNPDPGCRRGQGTQVTVSS
0.04 nM

Return Kd for the following binder: Re5D06R28 (VHH) VHH: QVQLVESGGGLVQPGGSLRLSCAISGSTLDYYAMGWFREAPGKEREGVARWRNNDGSTNYADSVKGRFTMSRDNAKDTYYLQMNSLEPEDTADYYCAYGPLTKYGSSWHWPYEYDYWGQGTQVTVSS
≤ 0.01 nM

Given Re6H06 (VHH) VHH: QVQLVESGGGLVQPGGSLRLSCAASGVTLDYYAIGWFRQAPGKEREGVSCTSSSDGSTYYADSVKGRFTISRDNAKNTVYLQMNSLKPEDTGVYYCAVVPQTYYGGKYYSQCTANGMDYWGKGTLVTVSS , respond with its Kd.
≤ 0.01 nM

Specify reported Kd for the binder shown: Re9B09 (VHH) VHH: QVQLVESGGGLVQPGGSLRLSCAASGFTLDYYAIGWFRQAPGKEREGVSRISSSDGSTDYADSVKGRFTISRDNAKNTVYLQMNSLKPEDTAVYYCATVPGTYYSGNWYYTWHPEAVDYWGKGTQVTVSS
≤ 0.01 nM
